- target.or.test.system: T1, recombinant human biotinylated mesothelin extracellular domain with C-terminal Avi-Tag (human, site selectively biotinylated in vitro with BirA enzyme at the C-terminal Avi-Tag)
- T1 construct: Produced in HEK293F cells; as printed it includes a His tag and the Avi-Tag; Immobilised on a streptavidin sensor chip for SPR; also called human MSLN ECD; human mesothelin ECD
- T1 chain: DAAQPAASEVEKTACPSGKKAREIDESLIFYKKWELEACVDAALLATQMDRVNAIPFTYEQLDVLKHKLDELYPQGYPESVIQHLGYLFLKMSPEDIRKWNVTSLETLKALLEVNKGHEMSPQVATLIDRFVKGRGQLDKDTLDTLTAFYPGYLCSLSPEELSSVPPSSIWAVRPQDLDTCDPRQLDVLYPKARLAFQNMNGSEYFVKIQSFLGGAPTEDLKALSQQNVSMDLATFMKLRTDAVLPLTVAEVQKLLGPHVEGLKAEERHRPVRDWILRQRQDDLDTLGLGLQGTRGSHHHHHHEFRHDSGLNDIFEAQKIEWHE
- assay.explanation: SPR, Biacore T200; biotinylated mesothelin ECD on streptavidin chip, scFv injected; 1:1 binding model
metric.name: koff (s⁻¹)
Give bare numbers, in s⁻¹.

Entry M17 scFv (human anti-mesothelin scFv, soluble, His-tagged) (scFv, also called NS89-94MD) scFv: EVQLVESGGGLVQPGRSLRLSCAASGFTFDDYAMHWVRQAPGKGLEWVSGISWNSGSTGYADSVKGRFTISRDNAKNSLYLQMNSLRAEDTALYYCAKDSSSWYGGGSAFDIWGQGTMVTVSSGGGGSGGGGSGGGGSSSELTQDPAVSVALGQTVRITCQGDSLRSYYASWYQQKPGQAPVLVIYGKNNRPSGIPDRFSGSSSGNTASLTITGAQAEDEADYYCNSRGSSGNHYVFGTGTKVTVLGSHHHHHHHH : reported koff = ?
0.0145

Entry M14 scFv (human anti-mesothelin scFv, soluble, His-tagged) (scFv, also called BS83-95ID) scFv: QVQLVQSGAEVRAPGASVKISCKASGFTFRGYYIHWVRQAPGQGLEWMGIINPSGGSRAYAQKFQGRVTMTRDTSTSTVYMELSSLRSDDTAMYYCARTASCGGDCYYLDYWGQGTLVTVSSGGGGSGGGGSGGGGSGGGGSDIQMTQSPPTLSASVGDRVTITCRASENVNIWLAWYQQKPGKAPKLLIYKSSSLASGVPSRFSGSGSGAEFTLTISSLQPDDFATYYCQQYQSYPLTFGGGTKVDIKGSHHHHHHHH : reported koff = ?
0.00251

***
Entry M16 scFv (human anti-mesothelin scFv, soluble, His-tagged) (scFv, also called XS87-99RD) scFv: EVQLVESGGGLVQPGRSLRLSCAASGFTFDDYAMHWVRQAPGKGLEWVSGISWNSGSTGYADSVKGRFTISRDNAKNSLYLQMNSLRAEDTALYYCAKDSSSWYGGGSAFDIWGQGTMVTVSSGGGGSGGGGSGGGGSSSELTQEPAVSVALGQTVRITCQGDSLRSYYASWYQQKPGQAPVLVIFGRSRRPSGIPDRFSGSSSGNTASLIITGAQAEDEADYYCNSRDNTANHYVFGTGTKLTVLGSHHHHHHHH : reported koff = ?
0.00395
